target: Ba/F3 stable cells (Homo sapiens, UniProt P00533, DUP767-769, cells depend on it); construct: EC50 Ba/F3-EGFR V769-D770insASV; other: Ba/F3-EGFR V769-D770insASV cells, 72 h, CCK-8; test: EC50 assay: Ba/F3 stable cell proliferation (CCK-8, 72 h); details: Ba/F3-EGFR V769-D770insASV cells
Sequence (P00533 with tags, fused parts or gaps DUP767-769): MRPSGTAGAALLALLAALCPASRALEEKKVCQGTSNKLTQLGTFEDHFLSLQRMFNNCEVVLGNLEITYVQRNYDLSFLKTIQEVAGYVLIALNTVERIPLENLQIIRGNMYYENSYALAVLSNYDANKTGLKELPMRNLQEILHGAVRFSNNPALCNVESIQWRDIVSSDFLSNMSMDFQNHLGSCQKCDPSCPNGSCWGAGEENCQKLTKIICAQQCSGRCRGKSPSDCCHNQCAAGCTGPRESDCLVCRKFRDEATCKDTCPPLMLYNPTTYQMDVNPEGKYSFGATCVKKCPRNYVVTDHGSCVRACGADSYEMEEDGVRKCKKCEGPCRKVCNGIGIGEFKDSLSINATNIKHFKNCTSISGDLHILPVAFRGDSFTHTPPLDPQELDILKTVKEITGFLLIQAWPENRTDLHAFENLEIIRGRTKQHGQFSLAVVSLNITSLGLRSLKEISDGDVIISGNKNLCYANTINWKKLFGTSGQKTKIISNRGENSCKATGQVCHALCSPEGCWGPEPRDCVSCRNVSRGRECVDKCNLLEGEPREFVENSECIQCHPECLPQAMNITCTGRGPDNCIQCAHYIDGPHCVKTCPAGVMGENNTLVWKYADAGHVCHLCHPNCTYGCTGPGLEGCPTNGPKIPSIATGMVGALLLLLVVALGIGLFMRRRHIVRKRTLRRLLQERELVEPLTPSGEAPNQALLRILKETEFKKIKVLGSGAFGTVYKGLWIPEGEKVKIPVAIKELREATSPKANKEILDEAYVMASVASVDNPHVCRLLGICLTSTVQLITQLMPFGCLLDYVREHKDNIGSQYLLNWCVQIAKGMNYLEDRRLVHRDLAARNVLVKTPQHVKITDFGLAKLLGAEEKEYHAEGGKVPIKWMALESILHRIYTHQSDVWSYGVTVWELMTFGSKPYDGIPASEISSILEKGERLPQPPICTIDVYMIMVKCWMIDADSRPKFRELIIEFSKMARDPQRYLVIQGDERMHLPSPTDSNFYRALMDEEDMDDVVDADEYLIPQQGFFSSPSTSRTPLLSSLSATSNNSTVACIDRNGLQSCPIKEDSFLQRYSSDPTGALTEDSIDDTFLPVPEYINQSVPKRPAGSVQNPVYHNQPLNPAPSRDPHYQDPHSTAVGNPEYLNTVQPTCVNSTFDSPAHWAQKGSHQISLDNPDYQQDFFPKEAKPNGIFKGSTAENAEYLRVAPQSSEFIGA
pEC50: −log10 of the molar value.
value_kind: pEC50

# molecule, pEC50
data = [
    ("C=CC(=O)N[C@H]1CC[C@@H](Oc2cc3c(Nc4ccc(Cl)c(Cl)c4F)ncnc3cc2OC)CC1", "≥ 6.70"),
]

The reported value for C#CC(=O)N1C2CCC1CC(Oc1cc3c(Nc4ccc5ccccc5c4)ncnc3cc1OC)C2 (stereo not drawn) in terms of pEC50 is ≥ 6.70

pEC50 in this record for `C=CC(=O)N1CCC(Oc2cc3c(Nc4ccc5cnn(C)c5c4)ncnc3cc2OC)CC1` : ≥ 6.70

# pEC50 of C=CC(=O)N1C2CCCC1CC(Oc1cc3c(Nc4cccc5ccccc45)ncnc3cc1OC)C2 (stereo not drawn) = ≥ 6.70

response.value for C=CC(=O)N1CCC(Oc2cc3c(NC(C(=O)O)c4cccc(Cl)c4)ncnc3cc2OC)CC1 (stereo not drawn) (field: pEC50) = < 6.00

Recorded pEC50 (molecule C=CC(=O)NC1CC(Oc2cc3c(C(=O)NCc4ccc(F)cc4)ncnc3cc2OC)C1 (stereo not drawn) ): < 6.00

`C=CC(=O)N1CC(c2cc3c(NCc4cccc(Cl)c4)ncnc3cc2OC)C1` has a reported pEC50 of ≥ 6.70

Summary for this molecule, C=CC(=O)N1C2CCCC1CC(Oc1cc3c(Nc4ccc(Cl)c(Cl)c4F)ncnc3cc1OC)C2 (stereo not drawn) : pEC50 is ≥ 6.70

Form field pEC50, entry `C#CC(=O)N1CCC(Oc2cc3c(Nc4ccc(Cl)c(Cl)c4F)ncnc3cc2OC)CC1` : ≥ 6.70

The molecule listed as `C=CC(=O)N1CCC(Oc2cc3c(NCc4ccc(F)cc4)ncnc3cc2OC)CC1` shows pEC50 equal to ≥ 6.70

Recorded result, `C=CC(=O)N[C@H]1C[C@@H](Oc2cc3c(Nc4ccc(Cl)c(Cl)c4F)ncnc3cc2NC)C1` , pEC50: ≥ 6.70

Quick note, pEC50 for C#CC(=O)N1C2CCC1CC(Oc1cc3c(Nc4cccc5c4CCC5)ncnc3cc1OC)C2 (stereo not drawn) landed at ≥ 6.70

response.value for `C=CS(=O)(=O)N1CCC(Oc2c(OC)cc3ncnc4c3c2NC(=O)N4c2ccc(Cl)c(Cl)c2F)CC1` (field: pEC50) = ≥ 6.70
